Tested on: rabbit platelet-rich plasma (ADP-induced platelet aggregation)
Assay: Inhibition of 10^-5 M ADP-induced platelet aggregation in rabbit platelet-rich plasma
Type: cell-based
Conditions: Oryctolagus cuniculus, Platelet, 0.05 h, compound 10^-4 M; solvent PSS; 3 minute incubation; read-out: Inhibition (%) 10^-5 M ADP-Induced Aggregation
In this section, each of the molecules is paired with its reported inhibition at 100 µM.
ENDPOINT LABEL: inhibition at 100 µM (%)

> print(dat)
                                   molecule  readout.unit  observed.measurement
1  Nc1nc(SCCCO)nc2c1ncn2[C@@H]1O[C@H](CO)[C@@H](O)[C@H]1O [2-(γ-Hydroxypropyl)thioadenosine]             %                    58
2  Nc1nc(S)nc2c1ncn2[C@@H]1O[C@H](CO)[C@@H](O)[C@H]1O             %                    10
3  Nc1nc(SCCO)nc2c1ncn2[C@@H]1O[C@H](CO)[C@@H](O)[C@H]1O [2-(β-Hydroxyethyl)thioadenosine]             %                    52
4  CCCSc1nc(N)c2ncn([C@@H]3O[C@H](CO)[C@@H](O)[C@H]3O)c2n1 [2-Propylthioadenosine, reference compound]             %                    16
5  CSc1nc(N)c2ncn([C@@H]3O[C@H](CO)[C@@H](O)[C@H]3O)c2n1 [2-Methylthioadenosine, reference compound]             %                    12
6  Nc1ncnc2c1ncn2[C@@H]1O[C@H](COP(=O)(O)O)[C@@H](O)[C@H]1O [Ammonium Adenosine-5'-monophosphate, reference compound]             %                     5
7  Nc1ncnc2c1ncn2[C@@H]1O[C@H](CO)[C@@H](O)[C@H]1O             %                    80
